Give measured polymerase ribozyme fitness (log ratio) for each item. Keep answers brief.
B1: TPR t1 (parent)
chain: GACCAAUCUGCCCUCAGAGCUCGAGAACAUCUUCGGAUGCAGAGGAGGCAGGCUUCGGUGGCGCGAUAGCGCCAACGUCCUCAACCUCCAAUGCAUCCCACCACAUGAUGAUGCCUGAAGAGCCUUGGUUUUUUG

Variants of: B1
measurement.notes: polymerase ribozyme fitness, log enrichment relative to wild type (log ratio); higher = more active; in vitro selection for triplet polymerase activity
Give bare numbers.

Please state, for each entry, its recorded polymerase ribozyme fitness (log ratio).
1. GACCAAUCUGCCCUCAGAGCUCGAGAACAUCUUCGGAUGCAGAUGAGGCAGGCUUCGGUGGCGCGAUAGCGCCAACGUCCUCAACCUCCACUACAUCCCACCACAUGAUGAUGCCUGAAGAGCCUUGGUUUUUUG [G44U A91C G93A]
2. GACCAAUCUGCCCUCAGAGCUCGAGAACAUCUUCGGAUGCAGAGGAGGGAGGAUUCAGUGGCGCGAUAGCGCCAACGUCCUCAAACUACAAUGCAUCCCACCACAUGAUGAUGCGUGAAGAGCCUUGGUUUUUUG [C49G C53A G57A C85A C88A C115G]
3. GACCAAUCUGCCCUCAGAGCUCGAGAACAUCUUCGGAUGCAGAGGAGGCAGGCUACGGUGGCGCGAUAGCGCCAACGUGCUCAACCUCCAAUGCAUCCCACCACAUGAUGAUGCCUGAAGAGCCUUGGUUUUUUG [U55A C79G]
4. GACCAAUCUGCCCUCAGAGCUCGAGAACUUCUUCGGAUGCAGAGGAGGCAGGCUUCGGUGGCGCGAUAGCACCAACGUCCUCAACCUCCAAUGCAUCCCACCACAUGAUGAUGCCUGAAGAGCCUUGGUUUUUUC [A29U G71A G135C]
5. GACCAAUCUUCCCUCAGAGUUCGAGAACAUCAUCGGAUGCAGAGGAGGCAGGCUUCGGUGGCGCGAUAGCGCCAACGUCCUCAUCCUCCAAUGCAUCCCACCAAAUGAUGAUGCCUGAAGAGCCUUGGUUUUUUG [G10U C20U U32A A84U C104A]
6. GACCAAUCUGCCCUCAGAGCUCGAGAACAUCUUCGGAUGCAGAGUAGGCAGGCUUCGGUGGCGCGAUAGCGCUAACGUCCUCAACCUCCAAUGCAUCUCACCACAUGAUGGUGCCUGAAGAGCCAUGGUUUUUUG [G45U C73U C98U A111G U125A]
7. GACCAAUCUGCCCGCAGAGCUCGAGAACAUCUUCGGAUGCAGACGAGGCAGGCUUCGGUGGCGCGAUAGCGCCAACGUCCUCAACUUCUAAUGCAUCCCACCACAUGAUGAUGCCUGAAAAGCCUUGGUUUUUUG [U14G G44C C86U C89U G120A]

// result
[-1.99, -3.29, -0.669, -2.1, -3.8, -6.59, -2.75]

Ref: the RNAGym collection of RNA variant scans (doi:10.1073/pnas.2313332121)
